- experimentalDetails: yeast transport mutant growth inhibition pilot in 384-well plates, post-Golgi transport modulator project (AID 636)
- experimentalSetup: absorbance 615 nm, about 18 h, hits give high values
The compounds listed here are annotated with their inhibition.
Unit % implied. Number only.

Below, 4 compounds whose answers are already recorded.
compound	valueReported
OCCNc1ncnc2c1c(-c1ccccc1)c(-c1ccccc1)n2Cc1ccco1	-5.66
COc1ccccc1CNC(=O)C1CCN(S(=O)(=O)N2CCCCC2)CC1	-1.97
CC(=O)Nc1ccc(NC2=CC(=O)CC(C)(C)C2)cc1	-3.38
O=c1c2ccc(-c3nnc4n3-c3ccccc3SC4)cc2nc2n1CCCCC2	-5.33

Field request: inhibition | item: CCOC(=O)c1sc(NC(=O)CSc2nc3c(cc2C#N)CCC3)c(C#N)c1C
-5

Field request: inhibition | item: O=c1c2cn[nH]c2nc(SCc2ccc3c(c2)OCCO3)n1-c1ccccc1
1.45

Field request: inhibition | item: CCc1nnc(NC(=O)CSc2nnc(-c3ccoc3C)n2CC(C)C)s1
-4.67

Field request: inhibition | item: Cc1ccc(C2C3CN(C(C)C)CC=C3C(C#N)=C(N)C2(C#N)C#N)cc1 (stereo unspecified)
-6.27

----------
- experimentalDetails: yeast transport mutant growth inhibition pilot in 384-well plates, post-Golgi transport modulator project (AID 636)
- experimentalSetup: absorbance 615 nm, about 18 h, hits give high values
reportedEndpoint: inhibition (%)
Unit % implied. Number only.

compound	reportedEndpoint	valueReported
CC(=O)N1CCN(S(=O)(=O)c2ccc(S(=O)(=O)NC3CC3)cc2)CC1	inhibition	-6.8

Field request: inhibition | item: COc1cccc(-c2noc(CCC(=O)NC3CCCCC3)n2)c1
-2.63

Field request: inhibition | item: CCOc1ccc2cc(C#N)c(SCC(=O)N3CCC(C)CC3)nc2c1
-8.8

Field request: inhibition | item: CCOC(=O)c1cc2oc(C)cc2n1CC(=O)OC1CCCCC1
-2.73

----------
- experimentalDetails: viability of HCT116 without oncogenic beta-catenin – human colon tumor cells, pilot screen (AID 823);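 also: 0% = wells killed by 20 µM Hyamine and 100% = untreated DMSO cell wells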
- experimentalSetup: HCT116 beta-catenin knockout viability, CellTiter-Glo, 60 h; at 10 µM; hits give low values
Results filed as inconclusive are left out.
The molecules listed here are annotated with their viability.
Unit % implied. Number only.

Below, 4 molecules whose answers are already recorded.
molecule	reportedEndpoint	valueReported
Cc1noc(/C=C/N(C)C)c1S(=O)(=O)N1CCCC(C(=O)NCc2cccs2)C1 (stereo not drawn)	viability	93.2
CCCOC(=O)c1ccc(NC(=O)CCC(=O)OCC)cc1	viability	98.8
COc1ccccc1-n1c(CNC(=O)c2ccccc2)nnc1SCC(=O)Nc1nnc(C)s1	viability	103
O=C(O)c1ccc(CSc2nnc(COc3ccc(Cl)cc3Cl)o2)cc1	viability	103

Field request: viability | item: Cc1cc(C)n(-c2nc3ccccc3nc2Nc2ccc3c(c2)OCO3)n1
87.7

Field request: viability | item: Cc1cccc(-c2noc(CN(C(=O)c3c(-c4ccccc4Cl)noc3C)C(C)C)n2)c1
44.3

Field request: viability | item: O=C(CCCCn1c(=O)[nH]c2ccsc2c1=O)NCC1CCCO1 (stereo not drawn)
97.1

----------
- experimentalDetails: S. cerevisiae growth inhibition in permissive medium (OD615), pilot counter-assay for S. cerevisiae lifespan shortening project, permissive growth control (AID 705)
- experimentalSetup: OD615, 24 h, at 10 µM, hits give high values
The molecules listed here are annotated with their growth inhibition.
Unit % implied. Number only.

Below, 4 molecules whose answers are already recorded.
smilesRepresentation	growth inhibition / %
O=C(O)c1ccc(CSc2nnc(COc3ccc(Cl)cc3Cl)o2)cc1	10.6
COc1ccc(N2CCN(C(=O)CCS(=O)(=O)c3cccc4nsnc34)CC2)cc1	-9.09
CCCCN(C)CCCNC(=O)Cn1c(=O)sc2ccccc21	-8.58
Cc1c(S(=O)(=O)N2CCc3ccccc3C2)c(=O)n(C)c(=O)n1C	-14.9

Field request: growth inhibition | item: Cn1c(-n2c(CCCN3C(=O)c4ccccc4C3=O)nc3ccccc3c2=O)nc2ccccc21
-1.74

----------
- experimentalDetails: S. cerevisiae growth inhibition in restrictive medium, OD615, pilot screen, restrictive growth control, yeast lifespan reduction project (AID 706);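 also: modified DeaD lifespan yeast strain shifted to restrictive glucose medium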
- experimentalSetup: OD615, 48 h, at 10 µM, hits give high values
Active and inactive are the calls of the source.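 The calls were made as follows: active = growth inhibition above a set limit, 3 SD over mean compound inhibition, in both replicates (cut at about 43% in these data); inconclusive = above the limit in only one replicate; inactive = at or below the limit in both replicates.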
The compounds listed here are annotated with their growth inhibition.

Below, 5 compounds whose answers are already recorded.
compound	growth inhibition
CCOC(=O)c1[nH]c(C)c(C(=O)N2CCOCC2)c1C	-4.17% (inactive)
Cn1c(=O)oc2cc(S(=O)(=O)N3CCC(C(=O)NCC4COc5ccccc5O4)CC3)ccc21 (configuration not stated)	-19.6% (inactive)
COc1ccc(N2CCN(C(=O)CCS(=O)(=O)c3cccc4nsnc34)CC2)cc1	-6.57% (inactive)
O=C(Cn1cc2c(n1)CCCCC2)NCCCN1CCOCC1	-6.7% (inactive)
CCN(CC)S(=O)(=O)c1cc(-c2nnc(-c3ccc(Br)cc3)o2)ccc1Cl	-14.6% (inactive)

Field request: growth inhibition | item: CCCCN(C)CCCNC(=O)Cn1c(=O)sc2ccccc21
-10.9% (inactive)

Field request: growth inhibition | item: COC(=O)c1c(NC(=O)C2CC2)sc2c1CCCC2
17% (inactive)

Field request: growth inhibition | item: N#CCCn1cc(C(CC(=O)c2ccc(Br)cc2)C(=O)O)c2ccccc21 (configuration not stated)
4.21% (inactive)

Field request: growth inhibition | item: CCN1CCN(CC(=O)Nc2cccc(C)c2)C(=O)C1=O
-0.21% (inactive)

Field request: growth inhibition | item: CCCOC(=O)c1ccc(NC(=O)CCC(=O)OCC)cc1
0.845% (inactive)

----------
- experimentalDetails: H69AR cell proliferation blockers – human, duplicate replicates, primary screen (AID 580);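 also: 100% = mean luminescence of untreated wells and 0% = no signal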
- experimentalSetup: H69AR lung tumor cells viability, ATP luminescence, 72 h; at 10 µM; hits give low values
Doc: threshold 90% (exclusive). Items with viability beneath it return 1.0; others return 0.0.

smilesRepresentation	assignedLabel
Cc1ccc(S(=O)(=O)N(C)CC(=O)NC2CC(C)(C)NC(C)(C)C2)cc1	0.0

Lab note: viability threshold 90%. Does this molecule come in strictly under it? COc1ccccc1-c1ccc(Nc2cccc(C(C)=O)c2)nn1
1.0

Lab note: viability threshold 90%. Does this molecule come in strictly under it? Cc1ccc(C)c(C(=O)NC2CC(C)(C)NC(C)(C)C2)c1
1.0

Lab note: viability threshold 90%. Does this molecule come in strictly under it? COCCNC(=O)c1ccc(Cl)c(Cl)c1
0.0

----------
- experimentalDetails: yeast transport mutant growth inhibition pilot in 384-well plates, post-Golgi transport modulator project (AID 636)
- experimentalSetup: absorbance 615 nm, about 18 h, hits give high values
The molecules listed here are annotated with their inhibition.
Unit % implied. Number only.

Below, 5 molecules whose answers are already recorded.
molecule	unitSpec	valueReported
CCn1c(=N)n(CC(O)COc2cccc(C)c2)c2ccccc21 (stereo unspecified)	%	3.55
Cc1ccc(C)c(C(=O)NC2CC(C)(C)NC(C)(C)C2)c1	%	-5.71
O=C1CC(Sc2nnc(-c3ccccc3)o2)C(=O)N1c1ccccc1 (stereo unspecified)	%	-6.13
C=C(C)CSc1nnc2[nH]c(=O)cc(N)n12	%	-2.63
O=C(Nc1ccc(Cl)c(Cl)c1)Nc1cc(C(=O)N2CCOCC2)ccc1N1CCCCC1	%	-4.08

Field request: inhibition | item: COc1ccc(CCNS(=O)(=O)c2ccc(C(=O)NCc3ccco3)cc2)cc1OC
1.3

Field request: inhibition | item: CC(C)(C)C1CCc2onc(C(=O)Nc3cnn(Cc4ccc(F)cc4)c3)c2C1 (stereo unspecified)
0

Field request: inhibition | item: CC(NS(=O)(=O)c1ccc(OCC(=O)N2CCOCC2)c(Cl)c1)c1ccccc1 (stereo unspecified)
-6.53

Field request: inhibition | item: COc1ccc(-c2coc3c(CN4CCCCC4)c(O)c(CN4CCCCC4)c(O)c3c2=O)cc1
0

Field request: inhibition | item: CC1(C)CC(=O)c2cc(OCC(=O)N3CCN(c4ccccc4F)CC3)ccc2O1
-0.13

Field request: inhibition | item: CN(C)S(=O)(=O)Nc1ccccc1C(N)=O
-6

----------
The molecules listed here are annotated with their inhibition.
- experimentalDetails: RAM pathway blockade in budding yeast – dse1pr::URA3 reporter, 5-FOA selection, pilot screen (AID 869);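 also: 0% = DMSO wells with no growth and 100% = 10 µM 1-NA-PP1 with full growth; RAM network block rescues cells from 5-FOA so hits raise OD615 growth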
- experimentalSetup: S. cerevisiae dse1pr::URA3 5-FOA growth, OD615, 2 d; at 10 µM; hits give high values; strain carries analog-sensitive mutant Cbk1 kinase
Unit % implied. Number only.

Below, 5 molecules whose answers are already recorded.
molecule	inhibition [%]
Cc1noc(/C=C/N(C)C)c1S(=O)(=O)N1CCCC(C(=O)NCc2cccs2)C1 (stereo not given)	0.21
CCCCN(C)CCCNC(=O)Cn1c(=O)sc2ccccc21	1.33
COC(=O)c1c(-c2ccc(F)cc2)csc1NC(=O)c1ccco1	1.12
COc1cc2c(cc1OC)C(c1ccccc1)N(C(=O)c1ccco1)CC2 (stereo not given)	2.55
Cc1cc(C)n(-c2nc3ccccc3nc2Nc2ccc3c(c2)OCO3)n1	6.39

Field request: inhibition | item: CC1CCN(c2nc(-c3ccccc3)cc(C(F)(F)F)n2)CC1
2.21

Field request: inhibition | item: CCOc1ccccc1NC1c2ccccc2C(=O)N1c1ccc(C)cn1 (stereo not given)
0.395

Field request: inhibition | item: Cc1ccc(-c2nc(CS(=O)CC(=O)NCc3ccc(Cl)cc3)c(C)o2)cc1 (stereo not given)
3.42

Field request: inhibition | item: N#Cc1c(NC(=O)CCCN2C(=O)c3ccccc3C2=O)oc(-c2ccccc2)c1-c1ccccc1
-0.33

Field request: inhibition | item: Cc1c(/C=N/n2cnnc2)c2ccccc2n1CCOc1ccc(Cl)cc1
4.12
